ASSAY TARGET: T1, Human VEGFA165 (human, UniProt P15692-4 27-191)
T1 construct: treated as the same molecule; also called antigen VEGFA
T1 sequence (P15692 other isoform, or with tags, fused parts or gaps limits assumed): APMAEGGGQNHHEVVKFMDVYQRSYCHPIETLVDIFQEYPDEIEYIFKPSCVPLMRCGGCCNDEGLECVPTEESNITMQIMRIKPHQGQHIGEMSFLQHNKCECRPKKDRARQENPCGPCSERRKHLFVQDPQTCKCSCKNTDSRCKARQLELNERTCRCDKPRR
ASSAY METHOD TEXT: competition ELISA on coated VEGFA, competitor VEGFR2-ECD-Fc 1 nM
METRIC: Maximum inhibition rate (%)

{"BINDER": "V43-1H-87 (VHH, Humanized V43) VHH: EVQLVESGGGLVQPGGSLRLSCAASGRTFSSYTMGWFRQAPGKEREFVVAISKGGYKYDSVSLEARFTISRDNSKNTLYLQMNSLRPEDTAVYYCAATRAYGSSRLRLANTYEYWGQGTLVTVSS", "Maximum inhibition rate (%)": 95.4}
{"BINDER": "V30-2H-78 (VHH, Humanized V30) VHH: EVQLVESGGGLVQPGGSLRLSCAASGRTFSSYTMGWFRQAPGKEREFVVAISKGGYKYDAVSLEARFTISRDNSKNTVYLQMNSLRAEDTAVYYCAATRAYGSSRLRLAKTYEYWGQGTLVTVSS", "Maximum inhibition rate (%)": 95.5}
{"BINDER": "V43-1H-78 (VHH, Humanized V43) VHH: EVQLVESGGGLVQPGGSLRLSCAASGRTFSSYTMGWFRQAPGKEREFVVAISKGGYKYDSVSLEARFTISRDNSKNTVYLQMNSLRAEDTAVYYCAATRAYGSSRLRLANTYEYWGQGTLVTVSS", "Maximum inhibition rate (%)": 95.5}
{"BINDER": "V30-2H-87 (VHH, Humanized V30) VHH: EVQLVESGGGLVQPGGSLRLSCAASGRTFSSYTMGWFRQAPGKEREFVVAISKGGYKYDAVSLEARFTISRDNSKNTLYLQMNSLRPEDTAVYYCAATRAYGSSRLRLAKTYEYWGQGTLVTVSS", "Maximum inhibition rate (%)": 94.2}
{"BINDER": "V43-3H-78 (VHH, Humanized V43) VHH: EVQLVESGGGLVQPGGSLRLSCAASGRTFTSYTMGWFRQAPGKEREFVVAISKGGYKYDSVSLEARFTISRDNSKNTVYLQMNSLRAEDTAVYYCAGTRAYGSSRLRLANTYEYWGQGTLVTVSS", "Maximum inhibition rate (%)": 93.4}
{"BINDER": "V43-3H-87 (VHH, Humanized V43) VHH: EVQLVESGGGLVQPGGSLRLSCAASGRTFTSYTMGWFRQAPGKEREFVVAISKGGYKYDSVSLEARFTISRDNSKNTLYLQMNSLRPEDTAVYYCAGTRAYGSSRLRLANTYEYWGQGTLVTVSS", "Maximum inhibition rate (%)": 91.6}
{"BINDER": "V30-2H-2m (VHH, Humanized V30) VHH: EVQLVESGGGLVQPGGSLRLSCAASGRTFSSYTMGWFRQAPGKEREFVVAISKGGYKYDAVSLEARFTISRDNSKNTVYLQMNSLRPEDTAVYYCAATRAYGSSRLRLAKTYEYWGQGTLVTVSS", "Maximum inhibition rate (%)": 94.7}
{"BINDER": "V43-1H-2m (VHH, Humanized V43) VHH: EVQLVESGGGLVQPGGSLRLSCAASGRTFSSYTMGWFRQAPGKEREFVVAISKGGYKYDSVSLEARFTISRDNSKNTVYLQMNSLRPEDTAVYYCAATRAYGSSRLRLANTYEYWGQGTLVTVSS", "Maximum inhibition rate (%)": 94.5}
{"BINDER": "V30 (VHH, Purified with C-terminal GGGGS-6×His; also called candidate antibody V30) VHH: QLQLVESGGGSVQPGGSLRLSCEVSGRTFSSYTMGWFRQAPGKGREFVVAISKGGYKYDAVSLEARFTISKDNTKNTVYLQMNSLKPEDTAVYYCAATRAYGSSRLRLAKTYEYWGQGTQVTVSS", "Maximum inhibition rate (%)": 94.8}

Where these numbers come from: patent EP4582447A1
